- target: MERTK (UniProt Q12866)
- Sequence (Q12866 whole entry, looked up): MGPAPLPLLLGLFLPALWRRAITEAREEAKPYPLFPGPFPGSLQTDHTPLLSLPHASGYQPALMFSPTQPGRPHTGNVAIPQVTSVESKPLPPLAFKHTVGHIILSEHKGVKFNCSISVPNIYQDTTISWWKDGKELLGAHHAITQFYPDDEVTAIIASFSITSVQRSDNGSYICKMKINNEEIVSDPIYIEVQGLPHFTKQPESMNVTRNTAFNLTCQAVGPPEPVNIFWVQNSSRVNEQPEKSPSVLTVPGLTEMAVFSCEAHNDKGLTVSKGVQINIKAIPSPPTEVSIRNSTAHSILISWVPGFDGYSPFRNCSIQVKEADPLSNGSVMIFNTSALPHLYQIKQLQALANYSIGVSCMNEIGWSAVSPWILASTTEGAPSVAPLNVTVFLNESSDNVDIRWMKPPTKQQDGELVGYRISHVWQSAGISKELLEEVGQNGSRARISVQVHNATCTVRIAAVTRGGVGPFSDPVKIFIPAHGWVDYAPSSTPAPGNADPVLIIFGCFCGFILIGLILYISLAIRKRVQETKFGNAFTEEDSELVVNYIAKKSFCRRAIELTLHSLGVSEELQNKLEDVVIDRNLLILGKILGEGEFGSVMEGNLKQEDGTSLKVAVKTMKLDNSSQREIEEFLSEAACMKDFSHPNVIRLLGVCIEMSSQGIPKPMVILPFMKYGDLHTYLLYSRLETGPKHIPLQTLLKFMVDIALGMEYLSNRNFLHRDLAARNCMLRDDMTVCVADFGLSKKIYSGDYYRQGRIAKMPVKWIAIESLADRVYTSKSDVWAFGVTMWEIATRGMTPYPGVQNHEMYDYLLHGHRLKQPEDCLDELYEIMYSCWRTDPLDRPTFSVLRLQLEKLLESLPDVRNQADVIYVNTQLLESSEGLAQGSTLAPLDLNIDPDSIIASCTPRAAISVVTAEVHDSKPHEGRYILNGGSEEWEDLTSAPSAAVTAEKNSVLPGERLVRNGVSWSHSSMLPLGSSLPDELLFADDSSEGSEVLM
- experiment summary: phosphorylation enrichment, bacterial display (enrichment ratio); higher = better substrate or ligand; peptides without Tyr show the background
Classification field: T = phosphorylation enrichment at or over 0.4; F = phosphorylation enrichment under 0.4.

RLLVFYPWTQR [HBB_Y36_V35F] ... T

[Q] Identify whether the reported phosphorylation enrichment of the following sequence is 0.4 or greater: VMAALYGRLYE [BTD_Y536_T532M]
[A] T

[Q] Entry to check: VLTSKHRGGGG [HBA1_Y141_Y141H]
[A] T

[Q] Entry to check: KANEFYPVVLI [ADAMTS18_Y765_YF]
[A] T

[Q] Entry to check: KLLPEYPGILS [DHFR2_Y163_V166I]
[A] F

[Q] Entry to check: FARECYSALPQ [SARS2_Y52_G51C_YF]
[A] T

* * *

- target: SHP2-C SH2;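 note: peptide library displayed on the E. coli surface as eCPX fusions, selected cells deep-sequenced, score is each peptide's frequency after selection divided by its frequency in the input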
- experiment summary: SH2 binding enrichment of the phosphorylated peptide, bacterial display (enrichment ratio); higher = better substrate or ligand; peptides without Tyr show the background
Classification field: T = SH2 binding enrichment at or over 0.8; F = SH2 binding enrichment under 0.8.

Study these solved cases before continuing.
STTIHYNFMCN [TP53_Y234_C229S_YF] ... T
PGPPGYCDSSH [COL12A1_Y3043_Q3048H] ... F
RIDRKYKKVRF [F8_Y442_G439D] ... F
SVMAEYGLYAA [VSX2_Y219_G223A] ... F

[Q] Identify whether the reported SH2 binding enrichment of the following sequence is 0.8 or greater: MKALGYFAVVK [OPA1_Y498_T503K]
[A] T

[Q] Entry to check: LNRAGYCDALE [MTUS1_Y151_C148R]
[A] F

[Q] Entry to check: LSALDYKIFYY [WDPCP_Y210]
[A] T

[Q] Entry to check: AALSAYAPQRP [PTPRN2_Y249_A251P]
[A] F

[Q] Entry to check: CTTIHYNYLCN [TP53_Y234_M237L]
[A] T

[Q] Entry to check: SKHHLYSDLQT [PTCHD1_Y84_R82H]
[A] T

[Q] Entry to check: EVRAQYEEIAQ [KRT76_Y361]
[A] F

* * *

- target: Hck (UniProt P08631)
- Sequence (P08631 whole entry, looked up): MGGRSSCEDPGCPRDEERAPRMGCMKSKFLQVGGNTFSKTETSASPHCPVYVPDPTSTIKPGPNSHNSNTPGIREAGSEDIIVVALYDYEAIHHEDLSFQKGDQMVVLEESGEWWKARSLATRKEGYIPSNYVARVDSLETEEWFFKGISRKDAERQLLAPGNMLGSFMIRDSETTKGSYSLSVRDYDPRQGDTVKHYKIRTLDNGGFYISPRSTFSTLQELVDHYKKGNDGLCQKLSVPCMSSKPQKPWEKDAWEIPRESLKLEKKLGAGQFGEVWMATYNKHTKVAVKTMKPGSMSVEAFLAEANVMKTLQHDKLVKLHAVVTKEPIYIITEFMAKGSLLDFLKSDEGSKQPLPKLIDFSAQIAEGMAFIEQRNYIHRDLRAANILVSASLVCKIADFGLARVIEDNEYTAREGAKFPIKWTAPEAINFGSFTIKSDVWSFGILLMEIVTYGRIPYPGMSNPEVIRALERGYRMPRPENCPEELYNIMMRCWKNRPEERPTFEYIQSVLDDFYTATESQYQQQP
- experiment summary: phosphorylation enrichment, bacterial display (enrichment ratio); higher = better substrate or ligand; peptides without Tyr show the background
measure name: phosphorylation enrichment
Answers are plain numbers.

HILFRYPKEFQ [IDS_Y234_P231L] ... 0.603
CTTIHYNYLCN [TP53_Y234_M237L] ... 0.536
IVAREYFSKAD [CAMK2B_Y107_E110K_YF] ... 0.427
ANYTEYVATSW [CDKL5_Y171_R175S] ... 0.672
LNCDRYSAGLL [PDE6A_Y275_V277A] ... 0.39

I need phosphorylation enrichment for every entry listed below, if you could help.
1. TEQDPYNNIDR [MMUT_Y364_V368D]
2. QTPVLYAMLFH [MPZ_Y220_D224Y_YF]
3. FSQQTYCRVSN [ABCD1_Y180_Y181C]
4. VNYGAYINYFK [GLB1_Y488_D491Y]
5. SSSGAYGGGYG [KRT19_Y61]
6. VGTKRYVAPEV [ACVRL1_Y375_M376V]

[A]
1. 0.501
2. 5.5
3. 1.34
4. 1.1
5. 0.434
6. 0.351
